test_details: UV absorption properties (λmax, molar extinction coefficient ε, efficiency E 1%, 1 cm)
Type: physicochemical
condition_context: Table 8a
Provide the reported ε of each item.
Numbers only, in M⁻¹ cm⁻¹.

compound: COc1ccc(N2C=C(C(=O)c3ccc(F)cc3)C(C)(C)CC2)cc1 [drawing 129]
ε, M⁻¹ cm⁻¹: 19350

compound: C=CC(=O)C1=CN(c2ccccc2)CCC1(C)C [drawing 123]
ε, M⁻¹ cm⁻¹: 21000

compound: C=CC(=O)C1=CN(c2ccc(OC)cc2)CCC1(C)C [drawing 128]
ε, M⁻¹ cm⁻¹: 21500

compound: CCC(=O)C1=CN(c2ccc(OC)cc2)CCC1(C)C [drawing 127]
ε, M⁻¹ cm⁻¹: 23500

compound: CC1(C)CCN(c2ccccc2)C=C1C(=O)c1ccc(Br)cc1 [drawing 124]
ε, M⁻¹ cm⁻¹: 23300

compound: CCC(=O)C1=CN(c2ccccc2)CCC1(C)C [drawing 122]
ε, M⁻¹ cm⁻¹: 23000

compound: CC1(C)C=CN(c2ccccc2)CC1 [drawing 121]
ε, M⁻¹ cm⁻¹: 22550

Entry CC1(C)C=CN(c2ccccc2)C=C1 [drawing 125] ; ε = 16000
